All values here come from patent US20060122181A1.

Outcome Measure: melting point

Examples with answers:
# Compound, Result
rows = [
    ("CCC(CC)c1ccc(N(Cc2ccc(-c3csc(COc4cc(C(=O)O)ccc4N)n3)cc2)C(C)C)cc1 [Example 1-90]", "179 to 181 °C"),
    ("CCCC(CCC)c1ccc(OCc2ccc(-c3csc(CNC(=O)c4ccc(C(=O)O)cn4)n3)cc2)cc1 [Example 1-163]", "164 to 166 °C"),
    ("CN(Cc1ccc(C2CCCCC2)cc1)c1ccc(-c2csc(CN(C)S(=O)(=O)c3cccc(C(=O)O)c3)n2)cc1 [Example 3-101]", "164 to 166 °C"),
    ("CCCC(CCC)c1ccc(OCc2ccc(-c3ccc(CN(CC(=O)O)CC(=O)Nc4ccc(C(C)C)cc4)s3)cc2)cc1 [Example 4-9]", "172 to 174 °C"),
    ("CCCC(CCC)c1ccc(CN(C)c2ccc(-c3csc(CN(C)[C@@H](Cc4ccccc4)C(=O)O)n3)cc2)cc1 [Example 3-86]", "143 °C"),
    ("CN(Cc1ccccc1)c1ccc(-c2csc(CN(CC(=O)O)Cc3ccc(Cl)c(Cl)c3)n2)cc1 [Example 3-51]", "69 to 72 °C"),
]

Read the next record carefully.
Any idea what its melting point is? The compound is CC(C)CN(Cc1ccc(-c2csc(CN(CC(=O)O)S(=O)(=O)c3ccccc3)n2)cc1)c1ccc(C(C)(C)C)cc1 [Example 1-31]
168.5 °C
